B1: 1-phosphatidylinositol 4,5-bisphosphate phosphodiesterase gamma-2, residues 772 to 827; numbered along this chain, P16885 (parent)
chain: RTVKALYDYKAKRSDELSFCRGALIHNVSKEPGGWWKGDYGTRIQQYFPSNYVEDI

Variants of: B1
Procedure text: abundance fitness (aPCA) (normalised: wild type 0, dead -1); higher = more abundant; growth selection in yeast, the domain comes from the species named
Condition summary: Homo sapiens
Reported abundance fitness maps to class as: bin A = under -0.6, bin B = from -0.6 up to -0.3, bin C = -0.3 and over

INSERT INTO measurements (mutation_string, cat) VALUES
  ('V53R', 'bin A'),
  ('D15C', 'bin C'),
  ('Y7D', 'bin C'),
  ('A11W', 'bin A'),
  ('G38I', 'bin A'),
  ('L6H', 'bin A'),
  ('Q45A', 'bin B'),
  ('D39G', 'bin A'),
  ('V53K', 'bin A'),
  ('W35V', 'bin C'),
  ('W35A', 'bin B'),
  ('P32W', 'bin B'),
  ('E31L', 'bin C'),
  ('E54T', 'bin C'),
  ('K12N', 'bin C'),
  ('G34R', 'bin C'),
  ('L17R', 'bin A'),
  ('Y52W', 'bin B'),
  ('Y7T', 'bin C'),
  ('L24P', 'bin A'),
  ('Y9P', 'bin A'),
  ('D39M', 'bin A'),
  ('V53D', 'bin A'),
  ('H26M', 'bin C'),
  ('T2A', 'bin C'),
  ('L6R', 'bin C'),
  ('G22N', 'bin B'),
  ('N51W', 'bin C'),
  ('P32V', 'bin B'),
  ('A11C', 'bin A'),
  ('G33N', 'bin C'),
  ('H26F', 'bin C'),
  ('A11N', 'bin B'),
  ('C20R', 'bin C'),
  ('A5R', 'bin A'),
  ('K30H', 'bin C'),
  ('F48N', 'bin B'),
  ('Q45R', 'bin A'),
  ('L6F', 'bin B'),
  ('S18L', 'bin A'),
  ('W36M', 'bin C'),
  ('S50P', 'bin C'),
  ('R13M', 'bin C'),
  ('Y7E', 'bin C');
